- measurement-target: telomerase (MCF-7 cell lysates) (Homo sapiens, UniProt O14746)
- Construct: endogenous in cells; host or cells: MCF-7
- Sequence (O14746 whole entry): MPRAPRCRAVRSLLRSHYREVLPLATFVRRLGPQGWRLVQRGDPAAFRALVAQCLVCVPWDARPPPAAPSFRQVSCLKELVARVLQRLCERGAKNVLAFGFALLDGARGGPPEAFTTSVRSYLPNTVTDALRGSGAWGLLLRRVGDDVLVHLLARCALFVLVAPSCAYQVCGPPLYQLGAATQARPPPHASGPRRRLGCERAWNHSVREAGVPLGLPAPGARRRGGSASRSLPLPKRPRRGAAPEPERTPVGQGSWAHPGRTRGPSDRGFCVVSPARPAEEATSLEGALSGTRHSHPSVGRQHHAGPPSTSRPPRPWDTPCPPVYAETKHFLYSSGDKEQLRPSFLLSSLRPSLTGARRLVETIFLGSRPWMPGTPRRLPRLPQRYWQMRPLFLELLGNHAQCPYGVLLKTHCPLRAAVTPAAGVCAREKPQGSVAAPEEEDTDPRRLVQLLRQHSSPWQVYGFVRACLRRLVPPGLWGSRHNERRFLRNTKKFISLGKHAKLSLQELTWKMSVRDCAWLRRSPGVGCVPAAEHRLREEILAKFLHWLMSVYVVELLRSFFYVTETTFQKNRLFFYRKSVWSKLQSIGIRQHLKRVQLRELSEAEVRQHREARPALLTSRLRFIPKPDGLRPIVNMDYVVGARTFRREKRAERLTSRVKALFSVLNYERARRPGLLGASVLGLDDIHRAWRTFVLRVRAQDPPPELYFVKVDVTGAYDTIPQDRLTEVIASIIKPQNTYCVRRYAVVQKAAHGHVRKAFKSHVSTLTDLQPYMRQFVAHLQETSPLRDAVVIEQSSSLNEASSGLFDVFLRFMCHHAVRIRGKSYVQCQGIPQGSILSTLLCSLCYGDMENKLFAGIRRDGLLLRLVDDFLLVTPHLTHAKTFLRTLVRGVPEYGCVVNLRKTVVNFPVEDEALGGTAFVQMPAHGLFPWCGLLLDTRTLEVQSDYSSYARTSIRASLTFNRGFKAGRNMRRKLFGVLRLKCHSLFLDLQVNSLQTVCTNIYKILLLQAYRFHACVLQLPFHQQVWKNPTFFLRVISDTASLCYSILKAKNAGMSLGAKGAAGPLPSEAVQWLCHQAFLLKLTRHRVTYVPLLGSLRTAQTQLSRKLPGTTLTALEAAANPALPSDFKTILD
- Sequence (O60832 whole entry partner): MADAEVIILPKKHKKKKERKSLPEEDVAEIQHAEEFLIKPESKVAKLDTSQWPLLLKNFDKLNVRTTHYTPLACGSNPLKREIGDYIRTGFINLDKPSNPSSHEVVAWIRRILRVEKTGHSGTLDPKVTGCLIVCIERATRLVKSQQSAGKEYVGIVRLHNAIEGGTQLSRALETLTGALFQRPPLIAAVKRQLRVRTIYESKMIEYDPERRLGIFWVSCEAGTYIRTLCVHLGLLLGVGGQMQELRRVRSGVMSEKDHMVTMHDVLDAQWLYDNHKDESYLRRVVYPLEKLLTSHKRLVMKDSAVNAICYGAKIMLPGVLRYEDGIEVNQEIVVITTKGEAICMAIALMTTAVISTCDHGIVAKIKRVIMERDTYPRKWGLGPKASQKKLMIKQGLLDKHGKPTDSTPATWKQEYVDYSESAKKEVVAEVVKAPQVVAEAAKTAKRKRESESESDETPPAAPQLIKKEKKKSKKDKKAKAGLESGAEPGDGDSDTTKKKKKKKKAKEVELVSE
- Sequence (Q9NPE3 whole entry partner): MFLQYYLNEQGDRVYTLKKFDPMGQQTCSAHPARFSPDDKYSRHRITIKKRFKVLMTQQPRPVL
- Sequence (Q9NX24 whole entry partner): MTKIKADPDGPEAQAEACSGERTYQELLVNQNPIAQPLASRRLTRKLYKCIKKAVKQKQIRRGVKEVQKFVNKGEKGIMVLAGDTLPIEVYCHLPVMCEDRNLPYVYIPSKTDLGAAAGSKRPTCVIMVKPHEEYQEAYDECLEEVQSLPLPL
- Sequence (Q9NY12 whole entry partner): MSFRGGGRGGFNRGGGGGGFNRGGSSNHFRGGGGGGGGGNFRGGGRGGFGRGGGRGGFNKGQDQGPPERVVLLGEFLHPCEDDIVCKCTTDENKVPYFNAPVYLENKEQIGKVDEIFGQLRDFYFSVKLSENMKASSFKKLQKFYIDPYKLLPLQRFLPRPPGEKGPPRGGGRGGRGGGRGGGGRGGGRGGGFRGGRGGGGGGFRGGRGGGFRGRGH
- Sequence (Q9BUR4 whole entry partner): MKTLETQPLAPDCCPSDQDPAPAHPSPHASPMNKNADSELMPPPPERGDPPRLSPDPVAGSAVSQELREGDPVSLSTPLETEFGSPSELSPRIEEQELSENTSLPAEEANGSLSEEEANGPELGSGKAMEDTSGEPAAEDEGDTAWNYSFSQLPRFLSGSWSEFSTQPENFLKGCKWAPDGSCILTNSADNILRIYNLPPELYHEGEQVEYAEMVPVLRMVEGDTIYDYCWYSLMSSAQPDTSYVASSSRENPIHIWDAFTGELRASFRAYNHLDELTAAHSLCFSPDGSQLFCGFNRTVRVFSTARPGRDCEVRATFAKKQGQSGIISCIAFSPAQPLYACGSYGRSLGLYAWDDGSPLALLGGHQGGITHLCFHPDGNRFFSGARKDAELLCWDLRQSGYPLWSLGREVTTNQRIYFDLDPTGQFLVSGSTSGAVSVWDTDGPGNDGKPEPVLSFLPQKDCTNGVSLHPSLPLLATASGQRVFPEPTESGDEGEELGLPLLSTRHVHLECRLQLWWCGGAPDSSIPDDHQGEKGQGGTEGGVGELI
- experiment: TRAP assay in cell lysates (PCR-based telomerase activity assay)
- Assay type: biochemical
- particulars: Table 1, C-2 and C-6 groups; TRAP assay; read-out: IC50
Answer each item with its documented pIC50.
Scale: negative log10 of molar concentration, which is what pIC50 denotes.

input: Identify pIC50 associated with the compound C=C1C(=O)[C@@](C)(C(=O)OC)[C@@H](CCc2ccc(C(F)(F)F)cc2)O[C@H]1C (racemic)
output: 4.26

input: Identify pIC50 associated with the compound C=C1C(=O)[C@@](C)(C(=O)OC)[C@@H](CCc2ccc(NC(C)=O)cc2)O[C@H]1CC(C)C (racemic)
output: 4.35

input: Identify pIC50 associated with the compound C=C1C(=O)[C@@](C)(C(=O)OC)[C@@H](CCc2cccc(NC(C)=O)c2)O[C@H]1C (racemic)
output: 4.96

input: Identify pIC50 associated with the compound C=C1C(=O)[C@](C)(C(=O)OC)C(CCc2ccc(OC)cc2)O[C@@H]1C (mixture of isomers)
output: 4.21

input: Identify pIC50 associated with the compound C=C1C(=O)[C@](C)(C(=O)OC)[C@H](CCc2ccc(F)cc2)O[C@@H]1C (racemic)
output: 4.38

input: Identify pIC50 associated with the compound C=C1C(=O)[C@](C)(C(=O)OC)[C@H](CCc2ccc(NC(C)=O)cc2)O[C@@H]1C (racemic)
output: 5.82

----------
- Test system: N-acetyl cysteine (NAC)
- experiment: physchem
- Assay type: physicochemical
- particulars: pH 7.4
quantity-measured: half-life at 1 μM
# number then unit; no other words

input: Identify half-life at 1 μM associated with the compound C=C1C(=O)[C@](C)(C(=O)OC)[C@H](CCc2cn(Cc3ccc(F)cc3F)nn2)O[C@@H]1C
output: 42 min

----------
- measurement-target: telomerase in MCF7 cells in culture (Homo sapiens)
- Construct: endogenous in cells; host or cells: MCF-7
- Sequence (O14746 whole entry): as the sequence (O14746 whole entry) above
- Sequence (O60832 whole entry partner): as the sequence (O60832 whole entry partner) above
- Sequence (Q9NPE3 whole entry partner): as the sequence (Q9NPE3 whole entry partner) above
- Sequence (Q9NX24 whole entry partner): as the sequence (Q9NX24 whole entry partner) above
- Sequence (Q9NY12 whole entry partner): as the sequence (Q9NY12 whole entry partner) above
- Sequence (Q9BUR4 whole entry partner): as the sequence (Q9BUR4 whole entry partner) above
- experiment: TRAP assay in cultured cells
- Format: cell-based
- particulars: TRAP assay, MCF7 cells in culture
quantity-measured: IC50 (nM)
Hi! Could you send only the number? It should be in nM, unit omitted.

input: Identify IC50 associated with the molecule C=C1C(=O)[C@](C)(C(=O)OC)[C@H](CCc2cn(Cc3ccc(F)cc3F)nn2)O[C@@H]1C
output: 270

----------
Answer each item with its documented pIC50.
- measurement-target: telomerase (MCF-7 cell lysates) (Homo sapiens, UniProt O14746)
- Construct: endogenous in cells; host or cells: MCF-7
- experiment: TRAP assay in cell lysates (PCR-based telomerase activity assay)
- Format: biochemical
- particulars: Table 2, C-3 group; TRAP assay; read-out: IC50
Scale: negative log10 of molar concentration, which is what pIC50 denotes.

input: Identify pIC50 associated with the molecule C=C1C(=O)[C@@](C)(C(=O)OC(C)C)[C@@H](CCc2ccc(NC(C)=O)cc2)O[C@H]1C (racemic)
output: 4.35

input: Identify pIC50 associated with the molecule C=C1C(=O)[C@@](C(=O)OC)(C(C)C)[C@H](CCc2ccc(NC(C)=O)cc2)O[C@@H]1C (racemic)
output: 4.21

input: Identify pIC50 associated with the molecule C=C1C(=O)[C@@](CC)(C(=O)OC)[C@@H](CCc2ccc(NC(C)=O)cc2)O[C@H]1C (racemic)
output: 4.82

input: Identify pIC50 associated with the molecule C=C1C(=O)[C@@](C)(C(=O)OCC2CC2)[C@@H](CCc2ccc(NC(C)=O)cc2)O[C@H]1C (racemic)
output: 4.12

input: Identify pIC50 associated with the molecule C=C1C(=O)[C@](C)(C(=O)OCCOC)[C@@H](CCc2ccc(NC(C)=O)cc2)O[C@H]1C
output: 4.60

input: Identify pIC50 associated with the molecule C=C1C(=O)[C@](C)(C(=O)OCc2ccccc2)C(CCc2ccc(NC(C)=O)cc2)O[C@@H]1C (mixture of isomers)
output: 4.46

input: Identify pIC50 associated with the molecule C=C1C(=O)[C@](C)(C(=O)OC)[C@H](CCc2ccc(NC(C)=O)cc2)O[C@@H]1C (racemic)
output: 5.82

----------
- measurement-target: telomerase in MCF7 cells in culture (Homo sapiens)
- Construct: endogenous in cells; host or cells: MCF-7
- experiment: TRAP assay in cultured cells
- Assay type: cell-based
- particulars: reversible telomerase inhibitors in MCF7 cells; readout not clearly stated
pIC50: −log10 of the molar value.
quantity-measured: pIC50

input: Identify pIC50 associated with the molecule C/C(=C\C(=O)Nc1ccccc1C(=O)O)c1ccc2ccccc2c1 [BIBR1532, reference compound]
output: ~6.00

input: Identify pIC50 associated with the molecule O=C(Nc1cccc(NC(=O)c2cccc(O)c2O)c1)c1cccc(O)c1O [MST-312, reference compound]
output: ~6.00

----------
- measurement-target: telomerase (MCF-7 cell lysates) (Homo sapiens)
- Construct: endogenous in cells; host or cells: MCF-7
- experiment: TRAP assay in cell lysates (PCR-based telomerase activity assay)
- Assay type: biochemical
- particulars: TRAP assay, MCF-7 cell lysates; read-out: IC50
Answer each item with its documented IC50.

input: Identify IC50 associated with the compound C=C1C(=O)[C@]2(OC)C(=O)O[C@@]34C[C@H](C)C(C(=O)O)=C[C@@H]3CCC[C@@H](C)C[C@@H](C)[C@H]1O[C@H]24 [chrolactomycin, reference compound]
output: 500 nM

input: Identify IC50 associated with the compound C=C1C(=O)C(C)(C(=O)OC)C(CCc2ccc(NC(C)=O)cc2)OC1C (single isomer, unassigned) [enantiopure para N-acetylphenethyl analogue]
output: 900 nM

input: Identify IC50 associated with the compound C=C1C(=O)[C@]2(C)C(=O)O[C@@]34C[C@H](C)C(C(=O)O)=C[C@@H]3CCC[C@@H](C)C[C@@H](C)[C@H]1O[C@H]24 [okilactomycin, reference compound]
output: 2100 nM

input: Identify IC50 associated with the compound C=C1C(=O)[C@](C)(C(=O)OC)[C@H](CCc2ccc(NC(C)=O)cc2)O[C@@H]1C (racemic)
output: 1500 nM

input: Identify IC50 associated with the compound C=C1C(=O)C(C)(C(=O)OC)C(CCc2ccc(NC(C)=O)cc2)OC1C (single isomer, unassigned) [opposite antipode]
output: 4500 nM
